# TARGET SYSTEM: T1, recombinant human EGFR extracellular domain with 6xHis (human, UniProt P00533 25-645)
# T1 construct: In-house produced; also called 6xHis EGFR ECD; soluble human EGFR ECD; not shown: 6xHis tag
# PROTOCOL NOTES: SPR competition, competitor 1042
List of % inhibition values.
The reply should read as a number followed by its unit.

Any idea what its % inhibition is? The binder is antibody 1030 (antibody, human IgG1, kappa, V domains shown, Chimeric IgG1 kappa) VH: EVQLVESGGGLVKPGGSLKLSCAASGFTFSSYALSWVRQTPERRLEWVASISGVGSTYFPDSVKGRFTMSRDNARNILYLQMSSLRSEDTAMYYCARGSDGYFYAMDYWGQGTSVTVSS VL: DIVLTQSPASLAVSLGQRATISCRASKSVSTSGYSFMHWYQLKPGQPPKLLIYLASNLESGVPARFSGSGSGTDFTLNIHPVEEEDAATYYCQHSREFPLTFGGGTKLEIKR
11%

Any idea what its % inhibition is? The binder is antibody 1257 (antibody, human IgG1, kappa, V domains shown, Chimeric IgG1 kappa) VH: EVQLQQSGPELVKPGASVKIPCKTSGYTFTDYNMAWVKQSHGKSLEWIGDIIPNNGGAIYNQKFKGKATLTVDKSSSTASMELRSLTSEDTAVYFCARKNIYYRYDGAGALDYWGQGTSVTVSS VL: QIVLTQSPAIMSASPGEKVTMTCSASSSVSYIYWYQQKPGSSPRLLIYDASNLASGVPVRFSGSGSGTSYSLTISRMEAEDAATYYCQQWSSYPITFGSGTKLEIKR
16%

Read the next record carefully.
Any idea what its % inhibition is? The binder is antibody 1024 (antibody, human IgG1, kappa, V domains shown, Chimeric IgG1 kappa) VH: QVQLQQPGAELVEPGGSVKLSCKASGYTFTSHWMHWVKQRPGQGLEWIGEINPSSGRNNYNEKFKSKATLTVDKSSSTAYMQFSSLTSEDSAVYYCVRYYGYDEAMDYWGQGTSVTVSS VL: DIVMTQAAFSNPVTLGTSASISCRSSKSLLHSNGITYLYWYLQKPGQSPQLLIYQMSNLASGVPDRFSSSGSGTDFTLRISRVEAEDVGVYYCAQNLELPYTFGGGTKLEIKR
71%
